B1: Cytoplasmic polyadenylation element-binding protein 2, residues 513 to 575; numbered along this chain, Q7Z5Q1 (parent)
chain: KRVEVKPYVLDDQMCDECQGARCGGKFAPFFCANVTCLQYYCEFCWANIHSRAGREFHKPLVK

- Variants of: B1
- PROCEDURE SUMMARY: abundance fitness (aPCA) (normalised: wild type 0, dead -1); higher = more abundant; growth selection in yeast, the domain comes from the species named
- CONDITION DETAILS: Homo sapiens
PARAMETER: abundance fitness
Quick one: just the number, no unit, thanks!

Please review the following examples before continuing.
{"VARIANT NAME": "F30C", "abundance fitness": -0.322}
{"VARIANT NAME": "V62I", "abundance fitness": -0.103}
{"VARIANT NAME": "G25R", "abundance fitness": -0.081}
{"VARIANT NAME": "K6N", "abundance fitness": 0.006}
{"VARIANT NAME": "F44K", "abundance fitness": -0.046}
{"VARIANT NAME": "Q13Y", "abundance fitness": -0.217}

Fill blank: measured abundance fitness of the variant `L38F` is ____.
-0.076

Query `A21D` next
-0.159

Query `E43A` next
-0.3
